Assay: In vitro human liver microsomal metabolic stability (Example 4)
Format: in vitro ADME
Details: pooled human liver microsomes; half life in human liver microsomes; averages of duplicate determination; read-out: hLM t1/2
Would you mind telling me the reported half-life of each entry?
// units = min; emit number, no label

Task: If you can, please state the reported half-life value of Cc1ccc(S(=O)(=O)N2CCC(C(=O)N[C@@H]3C[C@H]3c3ccccc3)CC2)c(C)c1 [Compound 7-3] .
Result: 14

Task: For Cc1ccc(S(=O)(=O)N2CCC(C(=O)Nc3ccc(Oc4ccccc4)cc3)CC2)c(C)c1 [Compound 7-20] then?
Result: 11

Task: For Cc1ccc(S(=O)(=O)N2CCC(C(=O)NC3CCCCC3)CC2)c(C)c1 [Compound 7-6] then?
Result: 14

* * *

Assay: In vitro human liver microsomal metabolic stability (Example 4)
Type: in vitro ADME
Conditions: pooled human liver microsomes; apparent intrinsic clearance, human liver microsomes
Assign label 1 whenever CLint scaled does not fall below 90 mL/min/kg; assign label 0 whenever it does.

Task: Entry Cc1ccc(S(=O)(=O)N2CCC(C(=O)NC34CC5CC(CC(C5)C3)C4)CC2)c(C)c1 [Compound 7-11] : is its CLint scaled no less than 90 mL/min/kg?
Result: label 1

Task: For Cc1ccc(S(=O)(=O)N2CCC(C(=O)Nc3ccc4ccccc4c3)CC2)c(C)c1 [Compound 7-38] then?
Result: label 0

Task: For Cc1ccc(S(=O)(=O)N2CCC(C(=O)NCC3CCCCC3)CC2)c(C)c1 [Compound 7-9] then?
Result: label 1

Task: For Cc1ccc(S(=O)(=O)N2CCC(C(=O)Nc3ccc4c(c3)OCO4)CC2)c(C)c1 [Compound 7-45] then?
Result: label 0

Task: For Cc1ccc(S(=O)(=O)N2CCC(C(=O)Nc3ccc([N+](=O)[O-])cc3)CC2)c(C)c1 [Compound 7-24] then?
Result: label 0

Task: For Cc1ccc(S(=O)(=O)N2CCC(C(=O)Nc3ccc4cc(C(=O)O)ccc4c3)CC2)c(C)c1 [Compound 7-44] then?
Result: label 0

Task: For Cc1ccc(S(=O)(=O)N2CCC(C(=O)Nc3ccc(OC(F)(F)F)cc3)CC2)c(C)c1 [Compound 7-23] then?
Result: label 0

Task: For Cc1ccc(S(=O)(=O)N2CCC(C(=O)Nc3ccc(Cl)c(Cl)c3)CC2)c(C)c1 [Compound 7-37] then?
Result: label 0

Task: For Cc1ccc(S(=O)(=O)N2CCC(C(=O)Nc3ccc(Oc4ccccc4)cc3)CC2)c(C)c1 [Compound 7-20] then?
Result: label 1

* * *

Would you mind telling me the reported IC50 of each entry?
Target: Human sEH (Homo sapiens, UniProt P34913)
Sequence (P34913 whole entry): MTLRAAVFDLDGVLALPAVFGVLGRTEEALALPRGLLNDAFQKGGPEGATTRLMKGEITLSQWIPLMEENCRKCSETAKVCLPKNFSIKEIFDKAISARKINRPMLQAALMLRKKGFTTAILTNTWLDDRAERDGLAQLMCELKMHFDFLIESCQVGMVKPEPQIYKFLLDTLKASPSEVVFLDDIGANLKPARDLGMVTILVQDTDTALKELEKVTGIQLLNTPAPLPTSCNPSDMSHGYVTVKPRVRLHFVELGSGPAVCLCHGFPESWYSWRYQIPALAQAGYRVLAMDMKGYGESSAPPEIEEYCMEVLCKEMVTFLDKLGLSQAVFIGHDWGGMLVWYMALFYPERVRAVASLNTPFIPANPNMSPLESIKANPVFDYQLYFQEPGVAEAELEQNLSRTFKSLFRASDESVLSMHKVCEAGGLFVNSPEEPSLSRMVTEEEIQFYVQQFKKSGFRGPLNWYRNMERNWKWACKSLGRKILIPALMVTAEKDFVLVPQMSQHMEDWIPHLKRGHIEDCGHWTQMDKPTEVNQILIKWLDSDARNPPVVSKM
Assay: Fluorescent assay with CMNPC substrate (Example 2)
Type: biochemical

Task: If you can, please state the reported IC50 value of "Cc1ccc(S(=O)(=O)N2CCC(C(=O)Nc3ccc4ncccc4c3)CC2)c(C)c1" .
Result: 0.078 µM

Task: For "Cc1ccc(S(=O)(=O)N2CCC(C(=O)Nc3cnc4ccccc4c3)CC2)c(C)c1" then?
Result: 0.045 µM

Task: For "Cc1ccc(S(=O)(=O)N2CCC(C(=O)Nc3ccc(C(F)(F)F)cc3)CC2)c(C)c1" then?
Result: 0.0069 µM

Task: For "Cc1ccc(S(=O)(=O)N2CCC(C(=O)Nc3ccccc3Br)CC2)c(C)c1" then?
Result: 0.03 µM

Task: For "Cc1ccc(S(=O)(=O)N2CCC(C(=O)Nc3ccccc3)CC2)c(C)c1" then?
Result: 0.023 µM

Task: For "Cc1ccc(S(=O)(=O)N2CCC(C(=O)Nc3ccc(Oc4ccccc4)cc3)CC2)c(C)c1" then?
Result: 0.006 µM

Task: For "Cc1ccc(S(=O)(=O)N2CCC(C(=O)Nc3ccc4cc(C(=O)O)ccc4c3)CC2)c(C)c1" then?
Result: 0.023 µM

Task: For "Cc1ccc(S(=O)(=O)N2CCC(C(=O)Nc3ccc([N+](=O)[O-])cc3)CC2)c(C)c1" then?
Result: 0.0046 µM

Task: For Cc1ccc(S(=O)(=O)N2CCC(C(=O)NC3CCCc4ccccc43)CC2)c(C)c1 (stereo not shown) then?
Result: 0.0006 µM

Task: For "Cc1ccc(S(=O)(=O)N2CCC(C(=O)Nc3ccc(Cl)cc3)CC2)c(C)c1" then?
Result: 0.02 µM

Task: For "COC(=O)c1ccc2cc(NC(=O)C3CCN(S(=O)(=O)c4ccc(C)cc4C)CC3)ccc2c1" then?
Result: 0.0023 µM

Task: For "Cc1ccc(S(=O)(=O)N2CCC(C(=O)Nc3ccc4c(c3)OCO4)CC2)c(C)c1" then?
Result: 0.0006 µM

Task: For "Cc1ccc(S(=O)(=O)N2CCC(C(=O)N[C@@H]3C[C@H]3c3ccccc3)CC2)c(C)c1" then?
Result: 0.0052 µM

Task: For "Cc1ccc(S(=O)(=O)N2CCC(C(=O)Nc3ccccc3Cl)CC2)c(C)c1" then?
Result: 0.25 µM

Task: For "Cc1ccc(S(=O)(=O)N2CCC(C(=O)Nc3ccc(Br)cc3)CC2)c(C)c1" then?
Result: 0.017 µM

Task: For "Cc1ccc(S(=O)(=O)N2CCC(C(=O)Nc3cc(Cl)cc(Cl)c3)CC2)c(C)c1" then?
Result: 0.012 µM

Task: For "Cc1ccc(S(=O)(=O)N2CCC(C(=O)Nc3ccccc3C)CC2)c(C)c1" then?
Result: 0.64 µM

Task: For "Cc1ccc(S(=O)(=O)N2CCC(C(=O)Nc3ccccc3F)CC2)c(C)c1" then?
Result: 0.02 µM

Task: For "Cc1ccc(S(=O)(=O)N2CCC(C(=O)Nc3ccc(C(=O)O)cc3)CC2)c(C)c1" then?
Result: 0.11 µM

Task: For "Cc1ccc(S(=O)(=O)N2CCC(C(=O)Nc3ccc(S(=O)(=O)C(F)(F)F)cc3)CC2)c(C)c1" then?
Result: 0.0087 µM

Task: For "Cc1ccc(S(=O)(=O)N2CCC(C(=O)Nc3ccc(N4CCCCC4)c(C(N)=O)c3)CC2)c(C)c1" then?
Result: 0.102 µM

Task: For "COC(=O)c1ccc(NC(=O)C2CCN(S(=O)(=O)c3ccc(C)cc3C)CC2)cc1" then?
Result: 0.013 µM

Task: For "Cc1ccc(S(=O)(=O)N2CCC(C(=O)Nc3ccccc3O)CC2)c(C)c1" then?
Result: 2.2 µM

Task: For "Cc1ccc(S(=O)(=O)N2CCC(C(=O)Nc3ccc(Cl)c(C(F)(F)F)c3)CC2)c(C)c1" then?
Result: 0.043 µM

Task: For "Cc1ccc(S(=O)(=O)N2CCC(C(=O)Nc3ccc(Cl)c(Cl)c3)CC2)c(C)c1" then?
Result: 0.0067 µM

Task: For "Cc1ccc(S(=O)(=O)N2CCC(C(=O)Nc3ccc4ccccc4c3)CC2)c(C)c1" then?
Result: 0.0016 µM

Task: For "Cc1ccc(S(=O)(=O)N2CCC(C(=O)NC34CC5CC(CC(C5)C3)C4)CC2)c(C)c1" then?
Result: 0.0085 µM

Task: For "Cc1ccc(S(=O)(=O)N2CCC(C(=O)Nc3cccc(C(F)(F)F)c3)CC2)c(C)c1" then?
Result: 0.02 µM

Task: For "Cc1ccc(S(=O)(=O)N2CCC(C(=O)Nc3ccc(N4CCCCC4)cc3)CC2)c(C)c1" then?
Result: 0.029 µM

Task: For "Cc1ccc(S(=O)(=O)N2CCC(C(=O)Nc3ccc(OC(F)(F)F)cc3)CC2)c(C)c1" then?
Result: 0.0052 µM

Task: For "Cc1ccc(S(=O)(=O)N2CCC(C(=O)Nc3ccc(C(C)C)cc3)CC2)c(C)c1" then?
Result: 0.0028 µM

Task: For "Cc1ccc(S(=O)(=O)N2CCC(C(=O)Nc3ccc(F)cc3)CC2)c(C)c1" then?
Result: 0.025 µM

Task: For "Cc1ccc(S(=O)(=O)N2CCC(C(=O)Nc3ccc(O)cc3)CC2)c(C)c1" then?
Result: 0.055 µM

Task: For "Cc1ccc(S(=O)(=O)N2CCC(C(=O)Nc3ccc(N4CCOCC4)cc3)CC2)c(C)c1" then?
Result: 0.041 µM
